I'd be grateful if you could share measured TGI for these entries.
- Tested on: DMS 273 small cell lung
- ASSAY_OVERVIEW: NCI tumour cell line growth inhibition, 48 h

For each listed entry, give its TGI.
1. CC/C(=C(/CC)c1ccc([O-])cc1)c1ccc([O-])cc1.CC/C(=C(\CC)c1ccc([O-])cc1)c1ccc([O-])cc1.O=C([CH-]C(=O)c1ccccc1)c1ccccc1.O=C([CH-]C(=O)c1ccccc1)c1ccccc1.O=C([CH-]C(=O)c1ccccc1)c1ccccc1.O=C([CH-]C(=O)c1ccccc1)c1ccccc1.[Ti+4].[Ti+4]
2. COc1ccc2c3c(n(Cc4ccccc4)c(=O)c2c1)-c1cc(OC)c(OC)cc1C3C (stereo not given)

a:
1: > 100 µM; 2: 38.6 µM

I would be grateful if you could provide TGI for each of the following entries.
1. CC(Oc1ccc(OCC2CCCCC2)cc1)C(N)=O (stereo not given)
2. NC(=S)Nc1cc(Cl)ccc1Cl
3. CC1(C)OC(C[C@]2(C#N)C[C@H](CCl)OC(C)(C)O2)C[C@@H](C[C@]2(C#N)C[C@H](CCl)OC(C)(C)O2)O1 (stereo not given in full)

a:
1. > 100 µM
2. > 100 µM
3. > 100 µM
